# tested.target: D(2) dopamine receptor (Rattus norvegicus)
# Sequence (P61169 whole entry): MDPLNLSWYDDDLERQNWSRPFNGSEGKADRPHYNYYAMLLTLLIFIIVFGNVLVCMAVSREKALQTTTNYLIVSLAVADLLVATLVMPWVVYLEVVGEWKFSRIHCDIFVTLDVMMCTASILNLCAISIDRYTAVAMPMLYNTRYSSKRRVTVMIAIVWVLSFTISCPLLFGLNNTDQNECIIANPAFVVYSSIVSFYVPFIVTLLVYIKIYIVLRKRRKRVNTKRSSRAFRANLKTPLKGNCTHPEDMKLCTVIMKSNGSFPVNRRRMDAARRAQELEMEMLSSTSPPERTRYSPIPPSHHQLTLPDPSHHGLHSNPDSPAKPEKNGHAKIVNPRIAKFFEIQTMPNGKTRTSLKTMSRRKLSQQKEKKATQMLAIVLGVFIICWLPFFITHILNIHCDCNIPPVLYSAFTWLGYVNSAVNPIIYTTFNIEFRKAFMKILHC
# assay.details: Displacement of [3H]-spiperone from rat striatum dopamine D2 receptor by liquid scintillation counter
Task for the reader: assign each of the following molecules its reported pKi.
Quick note: pKi means taking -log10 of the concentration in moles per liter.

Ask: # query: pKi of entry `Cl.O=S(=O)(c1cncc2ccccc12)N1CCC(CCN2CCN(c3ccc(Cl)cc3)CC2)CC1`
Result: 7.22

Ask: Give the measured pKi of `Cl.O=S(=O)(c1cnc2ccccc2c1)N1CCC(CCN2CCN(c3ccc(Cl)cc3)CC2)CC1` .
Result: 7.25

----------
Ki tested on 5-hydroxytryptamine receptor 1A (Rattus norvegicus): recorded values
Sequence (P19327 whole entry): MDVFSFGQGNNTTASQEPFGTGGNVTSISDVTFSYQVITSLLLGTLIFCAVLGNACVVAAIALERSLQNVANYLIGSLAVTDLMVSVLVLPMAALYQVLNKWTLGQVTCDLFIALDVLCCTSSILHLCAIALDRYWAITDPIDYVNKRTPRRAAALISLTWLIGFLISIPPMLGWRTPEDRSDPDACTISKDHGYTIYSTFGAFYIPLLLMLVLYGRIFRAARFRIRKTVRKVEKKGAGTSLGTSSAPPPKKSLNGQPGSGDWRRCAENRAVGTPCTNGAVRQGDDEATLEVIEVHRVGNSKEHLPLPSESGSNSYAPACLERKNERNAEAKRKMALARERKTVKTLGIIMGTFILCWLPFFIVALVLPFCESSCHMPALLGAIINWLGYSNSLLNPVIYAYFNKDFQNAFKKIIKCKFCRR
Reply with just the number (in nM).

Ask: // query Ki value for entry `O=S(=O)(NCCCCN1CCN(c2ccc(Cl)cc2)CC1)c1ccc2cccnc2c1`
Result: 868

Ask: Can you share its Ki? I mean this compound: `O=S(=O)(NCCCN1CCN(c2ccc(Cl)cc2)CC1)c1cncc2ccccc12`
Result: 888

Ask: Give its Ki value. Item: `O=S(=O)(NCCCCN1CCN(c2ccc(Cl)cc2)CC1)c1cncc2ccccc12`
Result: 1000
